Molecular target: EPHB1 (UniProt P54762)
Sequence (P54762 whole entry, looked up): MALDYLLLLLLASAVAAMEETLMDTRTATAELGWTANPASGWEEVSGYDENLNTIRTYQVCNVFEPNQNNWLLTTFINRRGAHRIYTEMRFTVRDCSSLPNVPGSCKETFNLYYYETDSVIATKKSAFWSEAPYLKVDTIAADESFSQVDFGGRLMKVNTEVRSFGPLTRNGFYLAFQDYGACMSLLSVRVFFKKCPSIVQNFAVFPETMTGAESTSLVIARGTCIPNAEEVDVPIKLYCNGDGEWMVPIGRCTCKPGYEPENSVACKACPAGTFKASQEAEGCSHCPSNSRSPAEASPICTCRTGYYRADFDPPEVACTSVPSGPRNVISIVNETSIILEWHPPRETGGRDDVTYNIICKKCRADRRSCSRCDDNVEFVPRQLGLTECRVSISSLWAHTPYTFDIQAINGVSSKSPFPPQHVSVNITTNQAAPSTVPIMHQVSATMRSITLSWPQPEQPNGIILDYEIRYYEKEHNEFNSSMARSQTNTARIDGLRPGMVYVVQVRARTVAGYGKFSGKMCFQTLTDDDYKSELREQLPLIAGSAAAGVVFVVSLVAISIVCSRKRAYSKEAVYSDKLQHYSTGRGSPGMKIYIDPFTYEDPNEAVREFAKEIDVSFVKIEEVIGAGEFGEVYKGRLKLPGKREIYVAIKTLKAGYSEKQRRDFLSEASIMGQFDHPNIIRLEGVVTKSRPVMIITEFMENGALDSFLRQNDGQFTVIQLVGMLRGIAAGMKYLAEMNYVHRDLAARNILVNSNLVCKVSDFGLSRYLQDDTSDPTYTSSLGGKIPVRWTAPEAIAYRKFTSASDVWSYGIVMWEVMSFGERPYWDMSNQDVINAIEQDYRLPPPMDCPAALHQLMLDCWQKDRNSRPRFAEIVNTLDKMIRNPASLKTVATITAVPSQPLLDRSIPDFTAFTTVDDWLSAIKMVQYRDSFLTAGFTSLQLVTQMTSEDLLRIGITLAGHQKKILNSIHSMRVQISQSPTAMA
Experiment: phosphorylation enrichment, bacterial display (enrichment ratio); higher = better substrate or ligand; peptides without Tyr show the background;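 note: 11-residue human phosphosite peptides and single-mutation variants displayed on the E. coli surface, counted by deep sequencing, each peptide's frequency after selection divided by its frequency in the unselected input library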;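 note: frequency after pTyr selection over input frequency; kinase dosed for 20-30% of maximal phosphorylation in three min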
# if value of phosphorylation enrichment reaches 0.5, tag rule met; if it stays below, tag rule not met

Q) Check if phosphorylation enrichment >= 0.5 (inclusive). Item: RGNMYYENSYA [EGFR_Y113]
A) rule met

Q) Check if phosphorylation enrichment >= 0.5 (inclusive). Item: SARHHYESLQT [BIN1_Y157]
A) rule not met

Q) Check if phosphorylation enrichment >= 0.5 (inclusive). Item: AAYNRYDQERF [CDC73_Y293]
A) rule not met

Q) Check if phosphorylation enrichment >= 0.5 (inclusive). Item: AHAGEYGAGAL [HBA1_Y25_E28G]
A) rule not met

Q) Check if phosphorylation enrichment >= 0.5 (inclusive). Item: EQMLEYMGQLQ [CFAP45_Y289_E291G]
A) rule not met

Q) Check if phosphorylation enrichment >= 0.5 (inclusive). Item: GQLIFYAPPEW [CNTN6_Y315]
A) rule met

Q) Check if phosphorylation enrichment >= 0.5 (inclusive). Item: RWHEGYRQTPK [CD44_Y412]
A) rule not met

Q) Check if phosphorylation enrichment >= 0.5 (inclusive). Item: DPHECYAKVFD [ALB_Y394]
A) rule met

Q) Check if phosphorylation enrichment >= 0.5 (inclusive). Item: NELTYYCYKKD [CD59_Y87_C89Y]
A) rule met

Q) Check if phosphorylation enrichment >= 0.5 (inclusive). Item: SVAVPYEPPEV [TP53_Y220_V217A]
A) rule met

Q) Check if phosphorylation enrichment >= 0.5 (inclusive). Item: FKGIVYSVSSD [DCX_Y70_A71S]
A) rule met

Q) Check if phosphorylation enrichment >= 0.5 (inclusive). Item: KGLMPYGQPRP [SRRT_Y798_Q793K]
A) rule not met

Q) Check if phosphorylation enrichment >= 0.5 (inclusive). Item: SVMVPYEPPEV [TP53_Y220_V217M]
A) rule met

Q) Check if phosphorylation enrichment >= 0.5 (inclusive). Item: RAILDYIASKF [GSTA3_Y74_N73D_YF]
A) rule not met

Q) Check if phosphorylation enrichment >= 0.5 (inclusive). Item: TLSGIYQYNIA [FOXL2_Y81_I84N]
A) rule met

Q) Check if phosphorylation enrichment >= 0.5 (inclusive). Item: VSFDEYRFRSF [CFTR_Y515_V520F_YF]
A) rule met

Q) Check if phosphorylation enrichment >= 0.5 (inclusive). Item: EDEGLYMVRVP [MYOM3_Y343]
A) rule met

Q) Check if phosphorylation enrichment >= 0.5 (inclusive). Item: VGQRPYRPLPE [REEP3_Y170_Q171R]
A) rule not met

Q) Check if phosphorylation enrichment >= 0.5 (inclusive). Item: RGRKVYLEDGF [PRIM2_Y201]
A) rule met

Q) Check if phosphorylation enrichment >= 0.5 (inclusive). Item: RDHYGYRQSVT [CD55_Y245]
A) rule met

Q) Check if phosphorylation enrichment >= 0.5 (inclusive). Item: RPDSPYSRPHD [DOK2_Y271]
A) rule not met

Q) Check if phosphorylation enrichment >= 0.5 (inclusive). Item: CNSFRYGGGGG [NPPA_Y151]
A) rule not met

Q) Check if phosphorylation enrichment >= 0.5 (inclusive). Item: QNTGDYFDLFG [PTPN11_Y62_YF]
A) rule met

Q) Check if phosphorylation enrichment >= 0.5 (inclusive). Item: TESNNYIYTTL [FAM83B_Y637_K640T]
A) rule met

Q) Check if phosphorylation enrichment >= 0.5 (inclusive). Item: AGLVQYFMEHH [PTPN11_Y80_E76G_YF]
A) rule met

Q) Check if phosphorylation enrichment >= 0.5 (inclusive). Item: `GYIISYREEEQ`
A) rule not met

Q) Check if phosphorylation enrichment >= 0.5 (inclusive). Item: LTECGYSFTTT [ACTB_Y198_R196C]
A) rule met

Q) Check if phosphorylation enrichment >= 0.5 (inclusive). Item: GEEIKDMLWLS [OTC_Y55_Y55D]
A) rule not met

Q) Check if phosphorylation enrichment >= 0.5 (inclusive). Item: ALAHEYHGGGG [HBB_Y146_K145E]
A) rule not met

Q) Check if phosphorylation enrichment >= 0.5 (inclusive). Item: KFLENYFDLKK [MMP3_Y41_YF]
A) rule met

Q) Check if phosphorylation enrichment >= 0.5 (inclusive). Item: GNLLIYTEFGK [HGD_Y166]
A) rule met

Q) Check if phosphorylation enrichment >= 0.5 (inclusive). Item: KSLFHYRQFSA [CPS1_Y1491_YF]
A) rule met

Q) Check if phosphorylation enrichment >= 0.5 (inclusive). Item: DYTEAYNSKIK [CLK1_Y305_P307S]
A) rule not met

Q) Check if phosphorylation enrichment >= 0.5 (inclusive). Item: FTAVGYHKHFT [NOMO1_Y1137_I1141F]
A) rule not met

Q) Check if phosphorylation enrichment >= 0.5 (inclusive). Item: LLAGLYRGQAL [FGFR4_Y390]
A) rule not met

Q) Check if phosphorylation enrichment >= 0.5 (inclusive). Item: DEEFEYMNRRR [ERBB3_Y1199_YF]
A) rule not met

Q) Check if phosphorylation enrichment >= 0.5 (inclusive). Item: INASGYRVGPA [ACSM1_Y477_I479V]
A) rule met

Q) Check if phosphorylation enrichment >= 0.5 (inclusive). Item: KRRGPYEMSPS [PLPP7_Y172_T174M]
A) rule not met

Q) Check if phosphorylation enrichment >= 0.5 (inclusive). Item: NCLREYVAGRF [CRB1_Y711]
A) rule not met

Q) Check if phosphorylation enrichment >= 0.5 (inclusive). Item: HPWPQYTTRAP [FNDC1_Y1281]
A) rule not met

Q) Check if phosphorylation enrichment >= 0.5 (inclusive). Item: WQQQSYLASGI [CTNNB1_Y30_D32A]
A) rule met

Q) Check if phosphorylation enrichment >= 0.5 (inclusive). Item: SKEPFYVHCIK [MYO1D_Y586_R588H_YF]
A) rule met

Q) Check if phosphorylation enrichment >= 0.5 (inclusive). Item: RIFDFYSARKA [STOX1_Y858_YF]
A) rule met

Q) Check if phosphorylation enrichment >= 0.5 (inclusive). Item: RLAKRYLIWEC [SCN5A_Y694_Q692K]
A) rule met

Q) Check if phosphorylation enrichment >= 0.5 (inclusive). Item: SSRKEYFIGGG [GYPC_Y126]
A) rule not met

Q) Check if phosphorylation enrichment >= 0.5 (inclusive). Item: TESALYGCTVL [KIAA1804_Y724]
A) rule met

Q) Check if phosphorylation enrichment >= 0.5 (inclusive). Item: LLNPRYNLPLD [TOM1L1_Y109]
A) rule met

Q) Check if phosphorylation enrichment >= 0.5 (inclusive). Item: VSLLPYFPAIM [IPO4_Y518_A513V]
A) rule met

Q) Check if phosphorylation enrichment >= 0.5 (inclusive). Item: RGDTVYTVNRM [KBTBD13_Y404]
A) rule met

Q) Check if phosphorylation enrichment >= 0.5 (inclusive). Item: LQLLGYRPVFS [CHST6_Y358_YF]
A) rule met

Q) Check if phosphorylation enrichment >= 0.5 (inclusive). Item: QQIFTYDSGIH [JUP_Y22_T19I_YF]
A) rule met
